Each recorded value in this set is attributed to the supplement of paper PMC9170038.

system: MS2 coat protein; assay: apparent KD of MS2 coat protein; designed switch direction (-1 OFF switch, 1 ON switch): -1; higher = weaker reporter binding; details: input ligand: microRNA oligo, concentration not stated
// apparent KD of MS2 coat protein lookup, one value per entry
Return type: number; implicit unit nM.

>>> numeric_readout("AAGUAGCAUGCAGGAUAUGGUAAUCGAACGUUACCAGAAGGGCAUGAGGAUCACCCAUGUUCUCAUUUGUAAGAACAGAUGUCU [Ex NG1 #7] (Eterna round: R96, puzzle: Exclusion NG 1)")
110
>>> numeric_readout("GGAUAAAAUCGAGGAUAUACGCACCACUAACGAGUAGAAGGCGAACAUGAGGAUCACCCAUGUGAGUUCUCAAUAAGAAACACG [Prohibition 68 - Jieux - Exclusion NG 1] (Eterna round: R96, puzzle: Exclusion NG 1)")
23.9
>>> numeric_readout("ACAUGAGGAUCACCCAUGUAAACGUAAUGGCUCAUGUAGAGUCAGGAUAUGCGUGGCGAACUCGCGCAGAAGGGACAAGACUGG [Deportation 22 - Jieux - Exclusion NG 3] (Eterna round: R96, puzzle: Exclusion NG 3)")
23.7

Exercise: Which apparent KD of MS2 coat protein is listed for AUUUAAUUUAAUAAGAUCACAUGAGGAUCACCCAUGUUAUAAUAGGAUAUCAGCUCGAUUAGAGCUGAGAAGGAUUAUAACAUG [ExNG3/9-A1] (Eterna round: R96, puzzle: Exclusion NG 3) ?
Key: 20.1

Exercise: Which apparent KD of MS2 coat protein is listed for CGAUAAAAGACAGGAUAUGAGGAGAGAGAGAGAUCAGAAGGGUCACAUGAGGAUCACCCAUGUGAGUUCUCGAAAUUAAAUAUU [Prohibition 50 - Jieux - Exclusion NG 1] (Eterna round: R96, puzzle: Exclusion NG 1) ?
Key: 14.2

Exercise: Which apparent KD of MS2 coat protein is listed for AAGCUAUCUGUAGGAUAUACAACUGAUCUCGAGGUAGAAGGACAUCCAGUUACGCCAACAUGAGGAUCACCCAUGUGGAUCUUG [Eternabot solution 39] (Eterna round: R96, puzzle: Exclusion NG 1) ?
Key: 12.9

Exercise: Which apparent KD of MS2 coat protein is listed for UCACGGGAUUGAGGAUAUAUUUAAAUUUUUACAAUAGAAGGCAAAUUUUUAGUUUUUUCACUUUACAUGAGGAUCACCCAUGUU [JR_ExcBG1_Sub082] (Eterna round: R96, puzzle: Exclusion NG 1) ?
Key: 19.6

* * *

// apparent KD of MS2 coat protein lookup, one value per entry
system: MS2 coat protein; assay: apparent KD of MS2 coat protein; designed switch direction (-1 OFF switch, 1 ON switch): 1; higher = weaker reporter binding; settings: input ligand: microRNA oligo, concentration not stated
Return type: number; implicit unit nM.

>>> numeric_readout("ACAUGAGAGGGAGGAUAUUUUGUACCUACAUGUGACAUGAGGAUCACCCAUGUGGUAAGUAUGAGAAAGAAGGCCCAGAUAUGU [Equivalence 18 - Jieux - Same State NG 2] (Eterna round: R96, puzzle: Same State NG 2)")
18.9

Exercise: Which apparent KD of MS2 coat protein is listed for AGCGAACAUGAGGAUCACCCAUGUAGACCGCGUGUGAUAACACAGGAUAUCAAAGGAAGAAGGAGUGAGAAGGGUGGGAAGGAG [Default title] (Eterna round: R96, puzzle: Same State NG 3) ?
Key: 53.7

Exercise: Which apparent KD of MS2 coat protein is listed for CUAAACAGAGGAGGAUAUGCAGAGGAUCACCCUGUAGAAGGCCACAGAGGAGGAUAUGCAGAGGAUCACCCUGUAGAAGGCCAC [pwkr ssNG DX.7] (Eterna round: R96, puzzle: Same State NG 1) ?
Key: 210

Exercise: Which apparent KD of MS2 coat protein is listed for GAAAGCAUGGGAGGAUAUAGCCUCUAUGGAGGGCUAGAAGGCCCUGGCCACAUGAGGAUCACCCAUGUGAAAUAAAUAGAAGAA [MOD Raarceza] (Eterna round: R96, puzzle: Same State NG 1) ?
Key: 2.74

* * *

test system: K4 kissing-loop RNA reporter; assay: apparent KD of K4 kissing-loop reporter; higher = weaker reporter binding; details: Eterna round: R107; input ligand: none;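 note: bound reporter read as fluorescence of individual clusters on recovered sequencing chips by microscopy, with normalized cluster intensities fitted with a binding model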
Category key, based on recorded apparent KD of K4 kissing-loop reporter: category 1: < 90 nM; category 2: ≥ 90 nM and < 200 nM; category 3: ≥ 200 nM

>>> class_name("AGCUCACACGGAAGGAGCGGAUAGAACUGACAGUUGGGCUCAAGUGAUGUUUGGGCUUGAAUCCAGGUAGGUCGCCGUGUGAGCU [Arg B SS t12]")
"category 2"
>>> class_name("AGACGCCAGUCGGCCGCCACUCACAGCAGUGAUGUUGCUGAAAAUCUAGAAGAGUGAUGUUCUUAGAGGACCGGGACUCCAGUCG [Same State Tryptophan B GF 6]")
"category 2"
>>> class_name("UGGAGUUGACGAAAAGUCAACUCCUGAGAUACCAGUGACGAAAGUCACCCUUGGCAGCUCACUGCCAGUGAUGUUGGAAGAUAAA [whbob_SS_Theo_A_w46]")
"category 3"
>>> class_name("CGUAGCAGACGAAGGAGCGGCUACCUGAAUCAGGGUGAUGCCUGAGUGAUGUUCAGGUAAAGCCAGGUAGGUCGCGUCUGCUACG [Arg B Ex t9a]")
"category 3"

Exercise: Tag the class for CGCGCGCGCGCGCGCGCGCGCGAAAAUGAUACCAGUAUAUAAGAAUACCCUUGGCAGCAUAAGAAAGAUAUAGUGAUGUUGUAUA [SSTheophA.A]
Key: category 3

Exercise: Tag the class for UGACUGGACUGAAGGAGCGGGCGAGACAAAGUCUCGAACUCGUAGUGAUGUUACGAAAUAACCCAGGUAGGUCGCAGUCUAGUCU
Key: category 1

* * *

tested on: MS2 coat protein; experiment: apparent KD of MS2 coat protein; designed switch direction (-1 OFF switch, 1 ON switch): 1; higher = weaker reporter binding; conditions: Eterna round: R95; input ligand: FMN 200 uM
TEST READOUT: apparent KD of MS2 coat protein (nM)
Return type: number; implicit unit nM.

Worked examples follow.
>>> numeric_readout("GGUAAACAUGAGGAUCACCCAUGUAAUAAUAUGGGAGGAUAUGGGAAUUAAUUAAUUAAACCAGAAGGCCUAAUGU [Mat - Same State 1 - D87] (puzzle: Same State 1)")
53.1
>>> numeric_readout("AAGACAAGCUUUAUGUUCUUCCUAUUCCAACAUGAGGAUCACCCAUGUAGUCUGACGAUUGUGAGUGUAGUUGAGAU [JR_SHM208A_Sub027] (puzzle: Sensor for hsa-mir-208a)")
58.3
>>> numeric_readout("GAGGAUGAUUUACAGGAUAUAUAGAAGAUGACAUGAGGAUCACCCAUGUAAGAGAGAGGAGGGAGAUAGAAGGGUAAGGGAUGUG [JR_SS2_Sub41] (puzzle: Same State 2)")
35.4
>>> numeric_readout("AUAAGGCAAGCUUUUUUCUCGUAGUGUAAACAUGAGGAUCACCCAUGUGCCCACCCUGGAUCUUUGGAUCGCGGAAC [Raxesori] (puzzle: Sensor for hsa-mir-208a)")
83.6

Exercise: Which apparent KD of MS2 coat protein is listed for UCUUGGUUUUUGCUCGUUUUUUGUGUUGAACAUGAGGAUCACCCAUGUAUUGUACAGUCCGGUUUAGUGAUGGUCCG [JMF 58] (puzzle: Sensor for hsa-mir-208a) ?
Key: 40.2

* * *

tested on: MS2 coat protein; experiment: apparent KD of MS2 coat protein; designed switch direction (-1 OFF switch, 1 ON switch): -1; higher = weaker reporter binding; conditions: Eterna round: R98; input ligand: none
TEST READOUT: apparent KD of MS2 coat protein (nM)
Return type: number; implicit unit nM.

>>> numeric_readout("UAAGUCGGAAGAUAAUAAUGAAUACAUGAGGAUCACCCAUGUAAGGAUAUGCAGUGGAAUACACUGCAGAAGGUACAAACCGAC [Exclusion NG 3/17-A2]")
15.2
>>> numeric_readout("AUGCCGUGCAGAGCGCAACGGCGUACAUGAGGAUCACCCAUGUAGGAUAUACUACACAAAGUGUAGUAGAAGGACAUGCGACUG [Ex NG2 #93]")
56.7
>>> numeric_readout("UCAUACAUGAGGAUCACCCAUGACAUGAGGAUCACCCAUGUGCAGGAUAUACGUGAUAUAAUAUAGUAGAAGGGCAGACUAUAA [LRO006_Exclusion NG 3]")
39.8
>>> numeric_readout("AAAAGAACCCGAGGAUAUGCGAAAUCACGAAGAGCAGAAGGCGGCUACAUGUGGAUCCGAGGACAUGAGGAUCACCCAUGUACG [Iszaaatce]")
321
>>> numeric_readout("UCUUAAAUGAUCCUAUUUACCAACAUGAGGAUCACCCAUGUGCAGGAUAUGCUAAAGAUAAAUAAGCAGAAGGGCAAUAACCGC [JR_ExcNG3_Sub007]")
127

Okay, now this sequence:
Exercise: Which apparent KD of MS2 coat protein is listed for GGUACUCAAAGAGUACCAAUACGAACAUGAGGAUCACCCAUGUAGGAUAUGCUACUCAAAGAGUAGCAGAAGGACAUGUGUAAA [OmeiMod 10 - Jieux - Exclusion NG 3] ?
Key: 92.4
